Ref: PubChem BioAssay (NCI)

- METHOD: NCI Yeast Anticancer Drug Screen. Data for the bub3 strain (AID 167)
- PARTICULARS: S. cerevisiae bub3 mutant strain, at 1.2 µM, hits give high values
This is part of a sample that, as a whole, favours compounds with a hit. Of some 79,000 tested, about 15% had one in any assay.
OBSERVED_PROPERTY: growth inhibition (%)
Response body: numeric value in %, unit text excluded.

Exercise: # input molecule: COc1ccc(S(=O)(=O)N/N=C\c2cc([N+](=O)[O-])cc(I)c2O)c(OC)c1OC ; wanted: its growth inhibition
Key: -13

Exercise: What value of measured growth inhibition is listed for C=Cc1cnc([N+](=O)[O-])n1C ?
Key: -5

Exercise: Would you mind telling me what growth inhibition value was observed for Cc1cc(Cl)nc2nc(Cl)c(N)cc12 ?
Key: -20

Exercise: What value of growth inhibition has been reported for the following molecule? CCC(=O)Oc1ccc(/C=N/NC(N)=S)nc1
Key: -7

Exercise: Item under review: O=C(N/N=C\c1c(Cl)cccc1Cl)N/N=C/c1c(Cl)cccc1Cl . Reported growth inhibition?
Key: 6

Exercise: For the molecule shown here, CN(C)Cc1cccc(CN(C)C)[c]1[Sn]([Br])([c]1ccccc1)[c]1ccccc1 , give the reported growth inhibition.
Key: -7

---

- METHOD: NCI Yeast Anticancer Drug Screen. Data for the mlh1 strain (AID 171);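 further: 0% = growth of vehicle-treated control cultures of the same strain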
- PARTICULARS: S. cerevisiae mlh1 strain growth inhibition; at 1.2 µM; hits give high values
About 79,000 compounds went through this panel and 15% of them were active in at least one assay; those are over-represented in the sample as a whole. Residues, ends and D or L forms follow the SMILES beside them. *: point of attachment. CH2Cl = ClC*
OBSERVED_PROPERTY: growth inhibition (%)
Note: unit % is implicit; provide only the numeric part.

Exercise: Return reported growth inhibition; argument: Cc1cc(Cl)ccc1NC(=O)/C(Cl)=C1/Sc2ccccc2NC1=O
Key: -1

Exercise: # get_value(readout='growth inhibition', item= CN[C@@H]1C[C@H]2O[C@@](C)([C@@H]1OC)n1c3ccccc3c3c4c(c5c6ccccc6n2c5c31)C(=O)N[C@@H]4O )
Key: -20

Exercise: Would you mind telling me what growth inhibition value was observed for O=C1C(Cl)=C(Cl)C(Cl)(Cl)C(Cl)C1(Cl)Cl (stereo not drawn) ?
Key: 12

Exercise: Any idea what growth inhibition was measured for O=C1C=CC(=O)N1c1ccc(N2C(=O)C=CC2=O)cc1 ?
Key: 49

Exercise: # input molecule: N#C/C(=C/N1C(=O)/C(=C/c2ccc([N+](=O)[O-])cc2)SC1=S)c1nc2ccccc2s1 ; wanted: its growth inhibition
Key: 5

Exercise: What does the record list as growth inhibition for Cc1ccc(CNc2ccc(Br)cc2)cc1 ?
Key: -32

Exercise: Sample O=C(CNS(=O)(=O)Cc1ccccc1)NNc1ccccc1 — what was its growth inhibition?
Key: -4

Exercise: Consider the molecule shown here: Nc1ccc(S(=O)(=O)Nc2ccc(Nc3c4ccccc4nc4ccccc34)cc2)cc1 What is its recorded growth inhibition?
Key: 4

Exercise: For O=C1c2ccccc2CCC1(Br)Br , what is its reported growth inhibition?
Key: 7

Exercise: Bench note: what growth inhibition did CC1=CC2C(C(C)C)CC1C1C(=O)OC(=O)C21 (stereo not drawn) show?
Key: -16

Exercise: Give the measured growth inhibition of C(=N/NC1=NCCN1)/c1c2ccccc2c(/C=N\NC2=NCCN2)c2ccccc12 .
Key: 11

Exercise: Requested field: growth inhibition. Item: OC(CN1CCCCC1)c1cc(Cl)c(Cl)c(Cl)c1 (stereo not drawn)
Key: 5

Exercise: Consider the molecule shown here: CC(=O)NC(CC(C)C)C(=O)NC(Cc1ccccc1)C(=O)CCl (stereo not drawn) (Ac-Leu-Phe-CH2Cl; configuration not given here) What is its recorded growth inhibition?
Key: -4

Exercise: GET /values?readout=growth inhibition&item= O=C(/C=C\c1ccc([N+](=O)[O-])o1)Nc1ccc(Cl)cc1
Key: 1

Exercise: I'd like to know its growth inhibition. The molecule in question is NNC(=S)Nc1cccc(Cl)c1
Key: -6

Exercise: Need growth inhibition of CCCCCC#CCOC(=O)C(=[N+]=[N-])P(=O)(c1ccccc1)c1ccccc1 , thanks.
Key: 28

Exercise: Would you mind telling me what growth inhibition value was observed for Nc1ccc(CCl)cc1Cc1c(O)ccc2ccccc12 ?
Key: 1

Exercise: Entry CCN(CC)CC(O)C1CCC(c2ccccc2)CC1 (stereo not drawn) has what growth inhibition?
Key: 3
